biological target: CD36 (Rattus norvegicus (Rat), UniProt Q07969); assay: CD36 receptor covalent photolabelling binding assay, competition with [125I]Tyr-Bpa-Ala-hexarelin on rat cardiac membranes; settings: Table 6; read-out: IC50 Binding CD36
Sequence (Q07969 whole entry): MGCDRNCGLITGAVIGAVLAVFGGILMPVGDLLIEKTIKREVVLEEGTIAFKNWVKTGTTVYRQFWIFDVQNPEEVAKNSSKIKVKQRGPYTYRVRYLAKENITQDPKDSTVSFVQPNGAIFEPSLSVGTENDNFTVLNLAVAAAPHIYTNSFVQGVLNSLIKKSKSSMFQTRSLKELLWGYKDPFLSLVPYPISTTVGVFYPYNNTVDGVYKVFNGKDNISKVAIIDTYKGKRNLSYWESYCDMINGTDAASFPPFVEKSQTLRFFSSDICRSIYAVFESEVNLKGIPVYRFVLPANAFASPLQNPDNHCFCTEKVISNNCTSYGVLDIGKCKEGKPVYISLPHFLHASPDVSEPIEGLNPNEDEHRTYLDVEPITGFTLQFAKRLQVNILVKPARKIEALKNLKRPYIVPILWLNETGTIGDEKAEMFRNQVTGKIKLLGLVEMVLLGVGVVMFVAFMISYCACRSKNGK
Starred links: 1 amine or outer side, 2 acyl side, 3 side chain; linkers in the order of their positions; H or OH if unused. Non-standard residues stand in square brackets, D forms with d. Residues, ends and D or L forms follow the SMILES beside them. *: point of attachment. azaTyr = O=C(N(Cc1ccc(O)cc1)N[*:1])[*:2]; azaPhe = O=C(N(Cc1ccccc1)N[*:1])[*:2]; Hydrocinnamoyl = O=C(CCc1ccccc1)*; azaGly = NNC(=O)O
Reported endpoint: IC50 (µM)

| Molecule | IC50 [µM] |
| --- | --- |
| C[C@H](N)C(=O)N[C@H](Cc1c[nH]c2ccccc12)C(=O)NNC(=O)N[C@@H](Cc1c[nH]c2ccccc12)C(=O)N[C@H](Cc1ccccc1)C(=O)N[C@@H](CCCCN)C(N)=O [CP-2A(v), Ala-D-Trp-azaGly-Trp-D-Phe-Lys-NH2] (H-A[dW][azaGly]W[dF]K-NH2) | 8.76 |

I. C[C@H](N)C(=O)NN(Cc1ccccc1)C(=O)N[C@@H](C)C(=O)N[C@@H](Cc1c[nH]c2ccccc12)C(=O)N[C@H](Cc1ccccc1)C(=O)N[C@@H](CCCCN)C(N)=O [CP-1A (iv), Ala-azaPhe-Ala-Trp-D-Phe-Lys-NH2] (H-A[azaPhe]AW[dF]K-NH2)
II. C[C@H](N)C(=O)N[C@H](Cc1c[nH]c2ccccc12)C(=O)N[C@@H](C)C(=O)NN(Cc1ccc(O)cc1)C(=O)N[C@H](Cc1ccccc1)C(=O)N[C@@H](CCCCN)C(N)=O [ZS555-F40, Ala-D-Trp-Ala-azaTyr-D-Phe-Lys-NH2] (H-A[dW]A[azaTyr][dF]K-NH2)
Query :: # compare IC50 for I vs II ; return the one with the smaller value Kindly state the label of the option you pick.
Result :: II

P. C[C@H](NC(=O)[C@@H](Cc1c[nH]c2ccccc12)NC(=O)CCc1ccccc1)C(=O)NN(Cc1ccc(O)cc1)C(=O)N[C@H](Cc1ccccc1)C(=O)N[C@@H](CCCCN)C(N)=O [ZS556] (Hydrocinnamoyl-[dW]A[azaTyr][dF]K-NH2)
Q. C[C@H](NC(=O)[C@@H](Cc1ccccc1)NC(=O)[C@H](Cc1c[nH]c2ccccc12)NC(=O)[C@H](C)NC(=O)N(Cc1ccc(O)cc1)NC(=O)[C@@H](N)Cc1cnc[nH]1)C(N)=O [CP-1B (i), His-AzaTyr-Ala-Trp-D-Phe-Ala-NH2] (H-H[azaTyr]AW[dF]A-NH2)
Query :: Kindly compare P with Q and tell me which has the lower IC50 figure. State the label of the item chosen.
Result :: P

---

target: human GHS-R1a (Homo sapiens (Human), UniProt Q92847); test: GHS-R1a binding assay, competition with 125I-ghrelin on membranes of LLC-PK1 cells expressing human GHS-R1a; settings: compared with GHRP-6
Sequence (Q92847 whole entry): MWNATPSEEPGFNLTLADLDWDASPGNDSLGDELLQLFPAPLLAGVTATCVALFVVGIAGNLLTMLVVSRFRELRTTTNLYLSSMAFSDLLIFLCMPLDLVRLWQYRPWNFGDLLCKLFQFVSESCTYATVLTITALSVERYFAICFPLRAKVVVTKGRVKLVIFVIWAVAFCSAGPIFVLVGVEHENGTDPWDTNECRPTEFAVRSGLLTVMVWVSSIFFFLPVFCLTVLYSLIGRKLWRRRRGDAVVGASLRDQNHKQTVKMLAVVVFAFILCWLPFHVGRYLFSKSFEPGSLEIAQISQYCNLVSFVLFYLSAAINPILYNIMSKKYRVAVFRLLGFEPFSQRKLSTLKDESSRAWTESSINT
Starred links: 1 amine or outer side, 2 acyl side, 3 side chain; linkers in the order of their positions; H or OH if unused. Non-standard residues stand in square brackets, D forms with d. Residues, ends and D or L forms follow the SMILES beside them. azaPhe = O=C(N(Cc1ccccc1)N[*:1])[*:2]; azaLeu = CC(C)CN(N[*:1])C(=O)[*:2]
Reported endpoint: binding affinity for GHS-R1a receptor in words

| Compound | Recorded result |
| --- | --- |
| CC(C)CN(NC(=O)[C@@H](Cc1c[nH]c2ccccc12)NC(=O)[C@@H](N)Cc1cnc[nH]1)C(=O)N[C@@H](Cc1c[nH]c2ccccc12)C(=O)N[C@H](C)C(=O)N[C@@H](CCCCN)C(N)=O [CP-2B (ii), His-D-Trp-azaLeu-Trp-D-Ala-Lys-NH2] (H-H[dW][azaLeu]W[dA]K-NH2) | decreased drastically |
| C[C@H](N)C(=O)NN(Cc1ccccc1)C(=O)N[C@@H](C)C(=O)N[C@@H](Cc1c[nH]c2ccccc12)C(=O)N[C@H](Cc1ccccc1)C(=O)N[C@@H](CCCCN)C(N)=O [CP-1A (iv), Ala-azaPhe-Ala-Trp-D-Phe-Lys-NH2] (H-A[azaPhe]AW[dF]K-NH2) | decreased drastically |
| CC(C)CN(NC(=O)[C@@H](Cc1c[nH]c2ccccc12)NC(=O)[C@H](C)N)C(=O)N[C@@H](Cc1c[nH]c2ccccc12)C(=O)N[C@H](Cc1ccccc1)C(=O)N[C@@H](CCCCN)C(N)=O [CP-2B (v), Ala-D-Trp-azaLeu-Trp-D-Phe-Lys-NH2] (H-A[dW][azaLeu]W[dF]K-NH2) | decreased drastically |
